- System: HS 578T breast
- EXPERIMENT_DESCRIPTION: NCI-60 one-dose screen, 48 h (100 = growth as untreated, 0 = no growth, -100 = all killed)
- CONDITION_CONTEXT: 10 µM unless noted
The panel holds about 83,000 compounds, 20% with a hit somewhere; the sample as a whole holds those more often.
Attribute: growth
MEASUREMENT_LABEL: growth (%)

O=C1c2cc(I)ccc2Oc2cc([N+](=O)[O-])ccc2N1c1ccc(Cl)cc1F = 88.6
Cc1c(C(=O)OCCO)cc(-c2ccc(Cl)cc2)n1-c1ccc(Cl)cc1Cl = 81.3
CCOC(=O)c1sc(-c2ccc(OS(=O)(=O)c3ccc(Br)s3)c(C=O)c2)nc1C = 27.6
CN1C(=O)N(C)C2Nn3c(s/c(=C\c4ccc(Cl)cc4Cl)c3=O)=NC21 (stereo not given) = 66.9
CC/C=C\C[C@H](O)C/C=C1/C(=O)C=C[C@@H]1C/C=C\CCCC(=O)OCCS(=O)(=O)c1ccccc1 = 36.2
COc1cccc2cc(N(C)c3nc(C)nc4ccsc34)ccc12 = 17.7
COc1ccc(-n2c(C(O)c3ccccc3)nn(CN3CCOCC3)c2=S)cc1 (stereo not given) = 93.3
CCCCC1CCc2cccc3c(SCC(=O)N(C)c4ccc(Cl)cc4)cc[n+]1c23 (stereo not given) = 116
Cn1c(/C=C(\C#N)c2cccc(C(F)(F)F)c2)nc2c(N3CCOCC3)nc(Cl)nc21 = -12
Cc1ccc(CN2CCC(C(=O)Nc3ccc(-c4cc5ccccc5[nH]4)cc3)CC2)o1 = 67
O=C(Nc1ccc(N2CCNCC2)cn1)c1[nH]ncc1Nc1ncnc2sccc12 = 69.9
COc1cccc(-c2nn(C)c3sc(C(=O)NCCN4CCN(c5ccccc5F)CC4)cc23)c1 = 63
O=C(O)c1cn(C2CC2)c2cc(N3CCN(C(=O)C[n+]4ccccc4)CC3)c(F)cc2c1=O = 99.3
Clc1ccc(Oc2ccc(Nc3ncnc4onc(-c5ccccc5)c34)cc2)c(Cl)c1 = 99.5
CN1C(=O)N(C)C2C1NN=c1s/c(=C\c3c[nH]c4ccccc34)c(=O)n12 (stereo not given) = 18.7
COc1ccc(C2c3ccc4ccccc4c3Oc3ncn(CCCn4ccnc4)c(=N)c32)cc1OC (stereo not given) = 83.9
CCCCNc1nc(NC(C)(C)C)nc(NC(C)(C)C)n1 = 67.7
CCOC(=O)c1cc2c(n1Cc1cc(OC)cc(OC)c1)-c1oncc1CCC2 = 21.5
CN(C)CCNc1cc(-c2ccccc2)nc2ccccc12 = 11.1
O=C(Nc1ncc(Cc2cccc(C(F)(F)F)c2)s1)C1COc2ccccc2O1 (stereo not given) = 65.4

---

In this section we review reported growth values for a set of molecules.
- Test system: HOP-62 NSCLC
- EXPERIMENT_DESCRIPTION: NCI-60 one-dose screen, 48 h (100 = growth as untreated, 0 = no growth, -100 = all killed)
- CONDITION_CONTEXT: 10 µM unless noted
- Experimental: Growth inhibition of the HOP-62 human Non-Small Cell Lung tumor cell line is measured as a screen for anti-cancer activity. Cells are grown in 96 well plates and exposed to the test compound for 48 hours. Compounds are tested at a single concentration, which is 10^-5 M for most compounds. The reported endpoint is percent growth (GI% or GIPRCNT), where numbers from 0 - 100% represent growth inhibition, and numbers from -100% - 0 represent cell death. […]
Compounds without any hit were thinned out: in the full panel of roughly 83,000, 20% have a hit.
MEASUREMENT_LABEL: growth (%)

C1CCN(c2nc(N3CCCCC3)nc(N3CCOCC3)n2)CC1 = 94.3
Cn1nc(C(C)(C)C)cc1NC(=O)Cc1ccc(/C=C2\C(=O)Nc3ccccc32)cc1 = 74.3
Nc1nonc1-n1nncc1-c1cccnc1 = 110
CCOC(=O)C(CC(=O)O)=C(C(=O)OCC)C(=O)OCC = 104
C#CCn1cc(C=C2C(=O)NC(=O)NC2=O)c2cc(Cl)ccc21 = 95.5
NCCCNc1nc2ccccc2c2c(=O)c3cc(F)ccc3sc12 = 32.8
O=NN(C(=O)NC1CCC(C(=O)O)CC1)C1CCC(C(=O)O)CC1 (stereo unspecified) = 104
O=Cc1c(OCc2cnnn2CC(=O)Nc2ccc(Cl)cc2)ccc2ccccc12 = 101
Clc1ccc(Nc2scc3[n+]2CCC3)cc1 = 99.8
O=C(c1ccccc1)N(C(=S)NCCc1ccc(Cl)cc1)c1ccccc1 = 103
Clc1ccc(-c2nnc(COc3ccc(C4=NNC(c5ccco5)C4)cc3)o2)cc1 (stereo unspecified) = 105
